Value source: ChEMBL document CHEMBL3813600

Assay: Cmax in rat at 3 mg/kg, po by LC-MS/MS analysis
Format: ADME, organism-based
Parameters: dose 3 mg/kg, route oral
Conditions: in vivo
MEASURED PARAMETER: Cmax (ng/mL)
Response body: numeric value in ng/mL, unit text excluded.

**Q:** Note Cmax for the compound shown: OB(O)c1ccccc1OCc1ccc(Oc2ccc(C(F)(F)F)cn2)cc1
**A:** 420

---

Assay: AUC (0 to 7 hrs) in rat at 3 mg/kg, po by LC-MS/MS analysis
Type: ADME, organism-based
Set-up: time < 7 hr, dose 3 mg/kg, route oral
Details: in vivo
MEASURED PARAMETER: AUC(0-t) at 7 h (ng·h/mL)
Response body: numeric value in ng·h/mL, unit text excluded.

**Q:** Note AUC(0-t) at 7 h for the molecule shown: OB(O)c1ccccc1OCc1ccc(Oc2ccc(C(F)(F)F)cn2)cc1
**A:** 1750

---

Biological target: Hormone-sensitive lipase (Homo sapiens, UniProt Q05469)
Sequence (Q05469 whole entry): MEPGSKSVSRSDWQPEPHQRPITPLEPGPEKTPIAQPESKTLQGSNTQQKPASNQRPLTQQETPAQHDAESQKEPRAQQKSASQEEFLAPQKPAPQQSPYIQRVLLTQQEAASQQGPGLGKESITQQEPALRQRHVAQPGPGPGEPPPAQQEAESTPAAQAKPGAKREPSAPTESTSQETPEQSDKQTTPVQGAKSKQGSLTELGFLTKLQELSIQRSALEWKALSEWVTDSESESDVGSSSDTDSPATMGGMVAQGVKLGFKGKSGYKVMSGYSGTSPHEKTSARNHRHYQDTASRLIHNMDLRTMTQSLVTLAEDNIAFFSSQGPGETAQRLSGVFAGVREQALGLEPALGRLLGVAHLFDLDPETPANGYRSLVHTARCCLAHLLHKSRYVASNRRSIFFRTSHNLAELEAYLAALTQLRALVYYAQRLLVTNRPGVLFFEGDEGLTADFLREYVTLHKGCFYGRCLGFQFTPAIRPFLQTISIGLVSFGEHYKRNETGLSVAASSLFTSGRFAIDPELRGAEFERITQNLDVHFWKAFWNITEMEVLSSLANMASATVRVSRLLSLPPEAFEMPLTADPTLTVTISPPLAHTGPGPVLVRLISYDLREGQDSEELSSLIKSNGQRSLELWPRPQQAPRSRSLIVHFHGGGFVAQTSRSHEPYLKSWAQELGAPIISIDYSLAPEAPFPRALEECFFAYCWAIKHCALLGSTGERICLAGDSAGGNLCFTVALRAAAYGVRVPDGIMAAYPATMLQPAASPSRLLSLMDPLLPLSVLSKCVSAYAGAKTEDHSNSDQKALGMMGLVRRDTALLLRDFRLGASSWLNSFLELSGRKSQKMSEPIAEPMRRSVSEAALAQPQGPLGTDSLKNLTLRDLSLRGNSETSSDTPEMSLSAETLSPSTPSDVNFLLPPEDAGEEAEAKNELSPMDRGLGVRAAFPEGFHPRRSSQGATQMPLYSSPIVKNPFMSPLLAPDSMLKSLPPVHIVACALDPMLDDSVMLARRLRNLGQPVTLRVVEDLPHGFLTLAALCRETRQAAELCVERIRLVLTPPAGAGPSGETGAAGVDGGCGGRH
Assay: Inhibition of recombinant human HSL expressed in Sf9 insect cells using PNPB as substrate measured after 5 mins by spectrophotometric method
MEASURED PARAMETER: pIC50
FYI, pIC50 means -log10 of a concentration in mol per litre.

Before answering, review these 2 worked examples.
- STRUCTURE NOTATION: "OB(O)c1ccccc1OCc1ccccc1"
  TARGET OR SYSTEM: "Hormone-sensitive lipase (Homo sapiens, UniProt Q05469)"
  OBSERVED RESULT: 6.89
- STRUCTURE NOTATION: "OB(O)c1ccccc1OCc1ccc(Oc2ccc(C(F)(F)F)cn2)cc1"
  TARGET OR SYSTEM: "Hormone-sensitive lipase (Homo sapiens, UniProt Q05469)"
  OBSERVED RESULT: 8.15

Consider the additional molecule presented here.
**Q:** Supply pIC50 measured with Hormone-sensitive lipase (Homo sapiens, UniProt Q05469) for O=C(Oc1ccc(Oc2ccc(C(F)(F)F)cn2)cc1)N1CCC(O)CC1 .
**A:** 6.57
